Test system: UACC-62 melanoma
Test: NCI-60 one-dose screen, 48 h
Settings: 10 µM unless noted
About 83,000 compounds went through this panel and 20% of them were active in at least one assay; those are over-represented in the sample as a whole. The source made the active and inactive calls. How the source made its calls: active means growth percent below 10; inactive means the rest.
Outcomes: active, inactive

{"molecule": "CCCn1cc(/C=N\\N=C2\\C(=O)Nc3ccc(C)cc32)c2ccccc21", "class_label": "inactive"}
{"molecule": "CC(C)C[C@H](C(=O)O)N(C)C(=O)[C@@H]1CCCN1C(=O)[C@H](C)OC(=O)[C@H](CCC(N)=O)NC(=O)[C@@H]1CCC(=O)N1", "class_label": "inactive"}
{"molecule": "CCOC(=O)NC(Cc1ccccc1)c1ccccc1 (centres undefined)", "class_label": "inactive"}
{"molecule": "COc1cc(-c2csc(NC(=O)Nc3ccc(C(F)(F)F)cc3)n2)cc(OC)c1OC", "class_label": "active"}

----------
Below, each entry is listed alongside its reported growth.
System: MOLT-4 leukemia
Experiment: NCI-60 one-dose screen, 48 h (100 = growth as untreated, 0 = no growth, -100 = all killed)
Conditions: 10 µM unless noted
About 83,000 compounds went through this panel and 20% of them were active in at least one assay; those are over-represented in the sample as a whole.
observed_property: growth (%)

{"molecule": "COc1ccc(C2N(c3cc(OC)c(OC)c(OC)c3)C(=O)C2(F)F)cc1F (centres undefined)", "observed_measurement": 18.7}
{"molecule": "Cc1ccc(C(=O)O)o1", "observed_measurement": 101}
{"molecule": "C=CCn1c(SCC(=O)Nc2ccc(C(=O)/C=C/c3cc(OC)c(OC)c(OC)c3)cc2)nnc1-c1ccccc1", "observed_measurement": 76.9}
{"molecule": "N#Cc1c(NC(=O)c2cccs2)[n+]([O-])c2cc(C(F)(F)F)ccc2[n+]1[O-]", "observed_measurement": 75.9}

----------
Test system: NCI-H460 lung
Assay: NCI-60 one-dose screen, 48 h
Details: 10 µM unless noted
The panel holds about 83,000 compounds, 20% with a hit somewhere; the sample as a whole holds those more often. Activity calls are given as the source filed them. Rule for the calls: active = growth percent below 10; inactive = the rest.
Possible outcomes: active, inactive

{"molecule": "C/C(=N\\NC(=O)c1ccncc1)c1ccc(N)cc1", "class_label": "inactive"}
{"molecule": "Cc1cc(C)cc(Nc2nccc(-c3c(-c4ccc(F)cc4)ncn3C3CCNCC3)n2)c1", "class_label": "active"}
{"molecule": "O=c1c2ccccc2oc2ccc(OCCCCCCN3CCCCCC3)cc12", "class_label": "inactive"}
{"molecule": "c1cc(CNC23CC4CC(CC(C4)C2)C3)cc(C[N+](Cc2cccc(CNC34CC5CC(CC(C5)C3)C4)c2)(Cc2cccc(CNC34CC5CC(CC(C5)C3)C4)c2)Cc2cccc(CNC34CC5CC(CC(C5)C3)C4)c2)c1 (stereo unspecified)", "class_label": "active"}
{"molecule": "COc1ccc2[nH]c3nc4cnccc4cc3c2c1", "class_label": "inactive"}
{"molecule": "N#Cc1c(-c2ccc(Cl)cc2)cc(-c2cc3ccccc3o2)nc1SCC(=O)c1ccc(Cl)cc1", "class_label": "inactive"}

----------
System: SN12C renal
Test: NCI-60 one-dose screen, 48 h
Conditions: 10 µM unless noted
About 83,000 compounds went through this panel and 20% of them were active in at least one assay; those are over-represented in the sample as a whole. Active and inactive are the calls of the source. Rule for the calls: active = growth percent below 10; inactive = the rest.
Outcome codes: 1 for active, -1 for inactive

{"compound": "O=C(O)C(C(=O)O)c1cccc2ccccc12", "system": "SN12C renal", "class_label": -1}
{"compound": "COC(=O)c1ccc(NC(=O)CSc2nc(-c3ccc(F)cc3)nc3ccccc23)cc1", "system": "SN12C renal", "class_label": -1}
{"compound": "CCOC(=O)/C=C1\\SC(=Nc2ccc(C#N)cc2)N(CCN2C(=O)/C(=C/C(=O)OCC)SC2=Nc2ccc(C#N)cc2)C1=O", "system": "SN12C renal", "class_label": -1}
{"compound": "O=C1CC23OC(C(O)c4ccccc4N12)C1C(c2ccccc2)=NOC13 (stereo unspecified)", "system": "SN12C renal", "class_label": -1}
{"compound": "C#C[C@@]1(O)[C@@H](CO)O[C@@H](n2cc(Cl)c3c(N)ncnc32)[C@@H]1O", "system": "SN12C renal", "class_label": 1}
{"compound": "Nc1c(C(=O)Nc2ccccn2)sc2nc3c(cc12)CCCC3", "system": "SN12C renal", "class_label": -1}
{"compound": "C=C(C)[C@@H]1CC[C@]2(C(=O)OCCOCCOCC[P+](c3ccccc3)(c3ccccc3)c3ccccc3)CC[C@]3(C)[C@H](CC[C@@H]4[C@@]5(C)CC[C@H](C)C(C)(C)[C@@H]5CC[C@]43C)[C@@H]12", "system": "SN12C renal", "class_label": 1}
{"compound": "CCCCc1n(Cc2ccc3ccccc3n2)cc[n+]1Cc1ccc2ccccc2c1", "system": "SN12C renal", "class_label": 1}
{"compound": "COc1cc(C2CC(c3ccc(Nc4nc(NCCO)nc(NCCO)n4)cc3)=NN2c2cc(Cl)cc(Cl)c2)cc(OC)c1OC (stereo unspecified)", "system": "SN12C renal", "class_label": -1}
{"compound": "O=c1nc(-c2ccccc2)c2cc(-c3ccc(N4CCCC4)nc3)ccc2[nH]1", "system": "SN12C renal", "class_label": -1}
{"compound": "CC(C)(C)c1ccc2oc(=O)n(SC(Cl)(Cl)Cl)c2c1", "system": "SN12C renal", "class_label": -1}
